biological target: Sigma non-opioid intracellular receptor 1 (Cavia porcellus, UniProt Q60492); test: Displacement of [3H](+)-pentazocine from sigma 1 receptor in guinea pig brain cortex membranes after 120 mins by scintillation counting analysis
Sequence (Q60492 whole entry): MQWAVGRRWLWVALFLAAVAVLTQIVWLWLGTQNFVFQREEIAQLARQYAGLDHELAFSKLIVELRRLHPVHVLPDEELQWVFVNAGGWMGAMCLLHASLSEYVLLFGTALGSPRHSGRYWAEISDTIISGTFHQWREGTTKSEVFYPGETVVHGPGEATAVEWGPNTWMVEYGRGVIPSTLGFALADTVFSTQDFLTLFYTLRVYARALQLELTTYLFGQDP
pKi: −log10 of the molar value.
Criterion: pKi meeting or surpassing 7. Met: Satisfied. Not met: Not satisfied.

Solved cases below.
| COMPOUND | CATEGORY |
| --- | --- |
| Fc1ccc(CN2CCC(NCCSC(c3ccc(F)cc3)c3ccc(F)cc3)CC2)cc1 | Satisfied |
| NC(=O)C[S@@+]([O-])C(c1ccc(F)cc1)c1ccc(F)cc1 | Not satisfied |
| [O-][S+](CCNC1CCN(CC(O)Cc2ccccc2)CC1)C(c1ccc(F)cc1)c1ccc(F)cc1 (configuration not stated) | Not satisfied |
| O=C(C1CC1)N1CCC(NCCSC(c2ccc(F)cc2)c2ccc(F)cc2)CC1 | Satisfied |
| CC(C)(C)CN1CCC(NCCSC(c2ccc(F)cc2)c2ccc(F)cc2)CC1 | Not satisfied |
| NC(=O)C[S+]([O-])C(c1ccc(F)cc1)c1ccc(F)cc1 (racemic) | Not satisfied |

Proceed to the following item.
### Prompt Please tell me: is the compound "Fc1ccc(C(SCCNC2CCN(CC3CC3)CC2)c2ccc(F)cc2)cc1" at or over 7 in terms of pKi?
### Response Not satisfied
